# credit: patent EP4711365A1

Would you mind telling me the reported Tmax of each entry?
Experiment: Pharmacokinetic assay in Wistar rats, oral
Settings: rat, in vivo, 30 mg/kg
Numbers only, in h.

| MOLECULE | MEASUREMENT UNIT | Tmax |
| --- | --- | --- |
| [2H]C([2H])([2H])C([2H])([2H])n1nccc1C(=O)N[C@H](C(=O)Nc1ncc([C@@H](CN2CCC(C(F)F)CC2)N2CC(F)(F)CCC2=O)s1)[C@H]1CC[C@H](C)CC1 [Example 938] | h | 4 |

Go through the list and state Tmax for each entry.
1. [2H]C([2H])([2H])C([2H])([2H])n1nccc1C(=O)NC(C(=O)Nc1ncc(C(COC)n2cc(Cl)ccc2=O)s1)C1CCC(C)CC1 (centres unmarked) [Example 586]
2. [2H]C([2H])([2H])C([2H])([2H])n1nccc1C(=O)NC(C(=O)Nc1ncc(C(CN2CCOCC2C)N2CC(F)(F)CCC2=O)s1)C1CCC(C)CC1 (centres unmarked) [Example 818]
3. [2H]C([2H])([2H])C([2H])([2H])n1nccc1C(=O)NC(C(=O)Nc1ncc(C(CN2CC(C)OCC2C)N2CC(F)(F)CCC2=O)s1)C1CCC(C)CC1 (centres unmarked) [Example 864]
4. [2H]C([2H])([2H])OC1CCN(CC(c2cnc(NC(=O)C(NC(=O)c3ccnn3C([2H])([2H])C([2H])([2H])[2H])C3CCC(C)CC3)s2)N2CC(F)(F)CCC2=O)CC1F (centres unmarked) [Example 992]
5. [2H]C([2H])([2H])C([2H])([2H])n1nccc1C(=O)N[C@H](C(=O)Nc1ncc([C@@H](CN2CCOC[C@@H]2C)N2CC(F)(F)CCC2=O)s1)[C@H]1CC[C@H](C)CC1 [Example 816]
6. [2H]C([2H])([2H])C([2H])([2H])n1nccc1C(=O)N[C@H](C(=O)Nc1ncc([C@@H](CN2CCC3(CC2)CC3(F)F)N2CC(F)(F)CCC2=O)s1)[C@H]1CC[C@H](C)CC1 [Example 958]
7. C[C@H]1CC[C@H]([C@H](NC(=O)C2(F)CC2)C(=O)Nc2ncc([C@@H](CN3CCC(C(F)(F)F)CC3)N3CC(F)(F)CNC3=O)s2)CC1 [Example 774]

[2, 2, 4, 2, 4, 4, 4]
